Examples of binders with documented pIC50 follow.
Molecular target: T1, human TIGIT on cells (human, UniProt Q495A1 22-141)
T1 construct: also called Expi293 human TIGIT over-expressing cells
T1 sequence: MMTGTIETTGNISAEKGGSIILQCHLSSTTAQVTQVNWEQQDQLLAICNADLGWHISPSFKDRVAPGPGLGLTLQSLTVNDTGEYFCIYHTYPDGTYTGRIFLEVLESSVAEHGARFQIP
Assay: FACS blocking of human PVR-m2aFc binding to human TIGIT OE Expi293 cells; binding site concentration; n=2
pIC50: −log10 of the molar value.

binder	pIC50
BM29 hIgG4 (antibody, V domains shown, benchmark anti-human TIGIT antibody, human IgG4 with S241P; also called BM29-H4; US2016/0176963A1 Clone 22G2 as hIgG4) VH: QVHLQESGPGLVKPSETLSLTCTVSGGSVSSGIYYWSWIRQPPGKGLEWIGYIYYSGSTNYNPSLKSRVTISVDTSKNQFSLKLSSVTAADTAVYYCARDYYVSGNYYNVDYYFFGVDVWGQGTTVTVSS VL: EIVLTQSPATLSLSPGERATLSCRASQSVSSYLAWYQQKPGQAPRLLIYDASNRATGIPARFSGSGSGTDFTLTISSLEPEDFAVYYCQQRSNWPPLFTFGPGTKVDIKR	9.30
CHA.9.547.7.H4(S241P) (antibody, human IgG4 S228P, kappa, V domains shown, humanized hybridoma anti-TIGIT antibody, human IgG4) VH: EVQLVESGGGLVQPGGSLRLSCAASGFTFSSYIMSWVRQAPGKGLEWVATISGGGTNTYYADSVKGRFTISRDNSKNTLYLQMNSLRAEDTAVYYCAKWLLSYYAMDYWGQGTLVTVSS VL: DIQMTQSPSSLSASVGDRVTITCRASQNINVWLTWYQQKPGKAPKLLIYKASKSHTGVPSRFSGSGSGTDFTLTISSLQPEDFATYYCQQGQSYPYTFGQGTKLEIKR	9.82
CHA.9.547.13.H4(S241P) (antibody, human IgG4, V domains shown, humanized hybridoma antibody, human IgG4 (S241P)) VH: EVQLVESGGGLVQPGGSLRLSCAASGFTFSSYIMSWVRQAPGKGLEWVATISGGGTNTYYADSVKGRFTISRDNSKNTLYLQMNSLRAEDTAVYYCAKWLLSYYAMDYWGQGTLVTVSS VL: DIQMTQSPSSLSASVGDRITITCRASQNINVWLSWYQQKPGKAPKLLIYKASKSHTGVPSRFSGSGSGTDFTLTISSLQPEDFATYYCQQGQSYPYTFGQGTKLEIK	9.68

Hello, the source for this data is patent US20240075137A1, in case you need it.
